Target: Cytochrome P450 2D6 (Homo sapiens, UniProt P10635)
Sequence (P10635 whole entry): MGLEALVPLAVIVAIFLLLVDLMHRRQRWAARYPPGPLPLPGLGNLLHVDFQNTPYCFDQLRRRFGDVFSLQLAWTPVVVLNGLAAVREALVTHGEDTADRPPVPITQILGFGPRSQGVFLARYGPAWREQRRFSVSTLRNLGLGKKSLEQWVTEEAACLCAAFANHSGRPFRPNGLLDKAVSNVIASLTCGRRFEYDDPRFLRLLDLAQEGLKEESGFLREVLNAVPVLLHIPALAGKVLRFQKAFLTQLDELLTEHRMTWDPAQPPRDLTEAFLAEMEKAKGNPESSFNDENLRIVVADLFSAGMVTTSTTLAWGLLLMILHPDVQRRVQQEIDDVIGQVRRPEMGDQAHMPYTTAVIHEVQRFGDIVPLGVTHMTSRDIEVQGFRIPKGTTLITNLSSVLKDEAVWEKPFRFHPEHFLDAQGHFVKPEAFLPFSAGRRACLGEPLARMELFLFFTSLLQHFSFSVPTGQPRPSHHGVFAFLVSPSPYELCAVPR
pIC50: −log10 of the molar value.
Property label: pIC50

Lookup: Item `O=C1NCc2nc(-c3c(F)cccc3F)cc(Nc3ccc(C(=O)N4CCCC4)cc3)c21` has what recorded pIC50?
Found: < 4.52

###

Target: UniProt Q12809
Sequence (Q12809 whole entry): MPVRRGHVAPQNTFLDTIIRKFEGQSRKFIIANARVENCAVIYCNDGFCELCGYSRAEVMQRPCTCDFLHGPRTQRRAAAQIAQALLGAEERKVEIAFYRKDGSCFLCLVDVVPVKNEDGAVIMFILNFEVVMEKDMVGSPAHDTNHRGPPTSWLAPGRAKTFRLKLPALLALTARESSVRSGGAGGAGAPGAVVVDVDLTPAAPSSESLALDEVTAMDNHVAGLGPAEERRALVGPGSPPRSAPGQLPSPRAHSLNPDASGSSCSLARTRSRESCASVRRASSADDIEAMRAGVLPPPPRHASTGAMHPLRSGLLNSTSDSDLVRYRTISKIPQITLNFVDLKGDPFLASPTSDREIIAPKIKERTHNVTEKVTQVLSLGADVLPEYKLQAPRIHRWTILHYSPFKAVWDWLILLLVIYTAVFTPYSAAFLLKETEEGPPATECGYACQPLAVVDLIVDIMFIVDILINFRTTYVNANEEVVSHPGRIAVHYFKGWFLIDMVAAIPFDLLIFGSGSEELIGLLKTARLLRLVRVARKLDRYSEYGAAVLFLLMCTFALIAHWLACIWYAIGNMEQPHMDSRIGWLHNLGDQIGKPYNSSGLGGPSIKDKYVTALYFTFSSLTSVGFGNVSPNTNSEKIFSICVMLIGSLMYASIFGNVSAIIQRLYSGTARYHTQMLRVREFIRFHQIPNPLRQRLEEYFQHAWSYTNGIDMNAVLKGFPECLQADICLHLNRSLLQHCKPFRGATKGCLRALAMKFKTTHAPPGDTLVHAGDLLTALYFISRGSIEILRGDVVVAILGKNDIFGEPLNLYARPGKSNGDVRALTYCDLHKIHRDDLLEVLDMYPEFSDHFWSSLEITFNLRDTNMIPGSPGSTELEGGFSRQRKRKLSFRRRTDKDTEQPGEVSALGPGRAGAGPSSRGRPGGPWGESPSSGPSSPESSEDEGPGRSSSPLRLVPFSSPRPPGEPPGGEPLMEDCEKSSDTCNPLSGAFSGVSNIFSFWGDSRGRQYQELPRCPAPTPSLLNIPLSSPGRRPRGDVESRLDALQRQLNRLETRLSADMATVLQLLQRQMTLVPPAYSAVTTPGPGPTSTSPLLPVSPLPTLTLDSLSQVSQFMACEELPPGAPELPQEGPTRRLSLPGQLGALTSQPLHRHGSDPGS
Assay: Inhibition of hERG measured by patchclamp assay
Property label: IC50

Lookup: Item O=C1NCc2nc(-c3c(F)cccc3F)cc(Nc3ccc(C(=O)N4CCCC4)cc3)c21 [US10336752, Compound 2] has what recorded IC50?
Found: > 30 µM

# credit: BindingDB's records for doi:10.1016/j.bmcl.2004.12.045
